tested-target: PLpro (Severe acute respiratory syndrome coronavirus 2)
method-description: nanoDSF fluorescence titration (quenching of PLpro fluorescence)
Assay type: binding, SARS-CoV-2
protocol-conditions: nanoDSF fluorescence titration, 50 μM PLpro, 0.5% DMSO, depending on the emission wavelength used (330/350 nm); read-out: Kd
recorded-metric: pKd
Note on units: pKd is unitless, being -log10 of a concentration expressed in mol/L.

Data request: Please report the recorded pKd for COC(=O)c1ccc(O)c(O)c1 [HE9, methyl 3,4-dihydroxybenzoate] .
Data returned: 3.00
